Each entry below carries its reported solubility.
assay_details: Solubility of the compound in phosphate-buffered saline at pH 7.4
Format: physicochemical
reported_metric: solubility (µg/mL)

[[record]]
structure_as_smiles = "COc1ccncc1C(=O)NC(=O)Nc1ccc(-c2ccccc2)c(C(F)(F)F)c1"
readout_qualifier = "="
experimental_value = 6.6

[[record]]
structure_as_smiles = "Cn1cc(C(=O)Nc2ccc(-c3ccccc3)c(C(F)(F)F)c2)c(=O)c2cccnc21"
readout_qualifier = "<"
experimental_value = 1

[[record]]
structure_as_smiles = "Cn1cc(C(=O)Nc2ccc(-c3ccccc3)c(C(F)(F)F)n2)c(=O)c2cnccc21"
readout_qualifier = "="
experimental_value = 2.4

[[record]]
structure_as_smiles = "Cn1cc(C(=O)Nc2ccc(-c3ccccc3)c(C(F)(F)F)c2)c(=O)c2ccncc21"
readout_qualifier = "="
experimental_value = 2.6

[[record]]
structure_as_smiles = "Cn1cc(C(=O)Nc2ccc(-c3ccccn3)c(C(F)(F)F)c2)c(=O)c2cnccc21"
readout_qualifier = "<"
experimental_value = 1

